In this section, each of the molecules is paired with its reported pIC50.
- TEST_SYSTEM: hALPK1-V1092A (Homo sapiens (Human), UniProt Q96QP1, V1092A)
- Sequence (Q96QP1 whole entry V1092A): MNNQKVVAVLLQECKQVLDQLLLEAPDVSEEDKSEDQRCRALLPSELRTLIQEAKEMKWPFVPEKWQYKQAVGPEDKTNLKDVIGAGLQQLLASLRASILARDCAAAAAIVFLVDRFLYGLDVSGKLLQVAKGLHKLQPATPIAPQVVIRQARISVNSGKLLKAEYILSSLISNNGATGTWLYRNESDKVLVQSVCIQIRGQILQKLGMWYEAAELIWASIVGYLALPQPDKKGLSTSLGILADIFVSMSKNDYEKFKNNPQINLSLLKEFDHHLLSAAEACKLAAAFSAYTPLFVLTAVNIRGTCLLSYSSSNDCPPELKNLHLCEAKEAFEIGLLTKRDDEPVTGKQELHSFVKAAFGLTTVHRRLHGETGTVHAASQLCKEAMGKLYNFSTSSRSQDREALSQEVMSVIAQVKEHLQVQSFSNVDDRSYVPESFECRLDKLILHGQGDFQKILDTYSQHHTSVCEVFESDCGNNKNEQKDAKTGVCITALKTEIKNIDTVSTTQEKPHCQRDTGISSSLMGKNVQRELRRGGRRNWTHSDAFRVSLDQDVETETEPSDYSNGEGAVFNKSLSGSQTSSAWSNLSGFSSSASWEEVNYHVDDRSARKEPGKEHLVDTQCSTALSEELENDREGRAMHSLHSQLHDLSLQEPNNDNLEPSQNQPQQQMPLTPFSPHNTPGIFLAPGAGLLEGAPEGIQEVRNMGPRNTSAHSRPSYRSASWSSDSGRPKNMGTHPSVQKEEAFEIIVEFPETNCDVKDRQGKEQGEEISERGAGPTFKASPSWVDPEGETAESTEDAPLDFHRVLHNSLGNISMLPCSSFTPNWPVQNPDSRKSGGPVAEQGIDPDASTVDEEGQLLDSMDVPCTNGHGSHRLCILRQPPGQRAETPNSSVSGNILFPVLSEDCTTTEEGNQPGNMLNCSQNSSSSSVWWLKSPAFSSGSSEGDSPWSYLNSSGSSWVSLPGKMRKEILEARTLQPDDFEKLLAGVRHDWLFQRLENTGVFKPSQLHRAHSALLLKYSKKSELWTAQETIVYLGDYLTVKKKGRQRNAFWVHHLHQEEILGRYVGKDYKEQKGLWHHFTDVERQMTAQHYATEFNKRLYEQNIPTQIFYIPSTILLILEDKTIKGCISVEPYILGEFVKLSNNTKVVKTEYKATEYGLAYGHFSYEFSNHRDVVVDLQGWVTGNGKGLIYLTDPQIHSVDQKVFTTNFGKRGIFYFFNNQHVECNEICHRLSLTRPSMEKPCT
- PROTOCOL_TEXT: cell-based
Worth noting: pIC50 values are minus log10 of concentrations stated in mol/L.

molecule="C#C[C@](C)(c1ccc(Cl)cc1)c1csc(NC(N)=O)n1 [Example A251]" readout_value=6.05
molecule="CC(c1ccccc1)c1csc(NC(=O)c2c(F)cc(N3CCNCC3)cc2F)n1 (stereo not shown) [Example C002]" readout_value=5.47
molecule="C#C[C@@](C)(c1ccc(Cl)cc1)c1csc(NC(=O)NCCS(N)(=O)=O)n1 [Example A289]" readout_value=6.36

Note: attention shifts to another entry.
Record C#C[C@@](C)(c1ccc(Cl)cc1)c1csc(NC(=O)c2c(F)cc(N3CCN(C)CC3)cc2F)n1 [Example C011] . Reported pIC50: 6.45
